measurement-notes: Transepithelial transport assay (Papp), HBEC air–liquid interface cultures on Transwells
assay-context: human, Papp (apparent permeability), compound set 1; mean ± standard deviation; apical to basal over 24 h; approx. 5 mg/mL apical; three donors
measure-name: Papp at 24 h (×10⁻⁶ cm/s)
Numeric only. Scale: ×10⁻⁶ cm/s

The following molecules have reported results that may help.
molecule	measure-name	unit-string	reported-result
CC(C)(O/N=C(/C(=O)N[C@@H]1C(=O)N2C(C(=O)[O-])=C(C[n+]3ccccc3)CS[C@H]12)c1csc(N)n1)C(=O)NCCOCCOCCOCCOCCOCCNc1ccnc(N)n1	Papp at 24 h	×10⁻⁶ cm/s	1.75
CCCCNC(=O)C(C)(C)O/N=C(/C(=O)N[C@@H]1C(=O)N2C(C(=O)[O-])=C(C[n+]3ccccc3)CS[C@H]12)c1csc(N)n1	Papp at 24 h	×10⁻⁶ cm/s	1.91

# evaluate next
Name the recorded Papp at 24 h for `CCN(CC)CCNC(=O)C(C)(C)O/N=C(/C(=O)N[C@@H]1C(=O)N2C(C(=O)[O-])=C(C[n+]3ccccc3)CS[C@H]12)c1csc(N)n1` .
3.58

---

# MIC Bp listing for each entry below
System: Burkholderia pseudomallei
measurement-notes: microbe, parasite or virus in culture
Assay type: cell-based
assay-context: 24 h at 37 °C, cation-adjusted Mueller–Hinton II broth; mean of two replicates

The following compounds have reported results that may help.
compound	study-system	MIC Bp
CC(C)(O/N=C(/C(=O)N[C@@H]1C(=O)N2C(C(=O)[O-])=C(C[n+]3ccccc3)CS[C@H]12)c1csc(N)n1)C(=O)NCCNC(=O)c1ccc(B(O)O)cc1 [Compound 18]	Burkholderia pseudomallei	< 60 µg/mL
CC(C)(O/N=C(/C(=O)N[C@@H]1C(=O)N2C(C(=O)[O-])=C(C[n+]3ccccc3)CS[C@H]12)c1csc(N)n1)C(=O)NCCc1cc(O)c(O)cc1Cl [Compound 4]	Burkholderia pseudomallei	< 60 µg/mL
CC(C)(O/N=C(/C(=O)N[C@@H]1C(=O)N2C(C(=O)[O-])=C(C[n+]3ccccc3)CS[C@H]12)c1csc(N)n1)C(=O)NCCNc1ccnc(N)n1 [Compound 14]	Burkholderia pseudomallei	≥ 100 µg/mL

Name the recorded MIC Bp for COCCOCCOCCOCCOCCNC(=O)C(C)(C)O/N=C(/C(=O)N[C@@H]1C(=O)N2C(C(=O)[O-])=C(C[n+]3ccccc3)CS[C@H]12)c1csc(N)n1 [Compound 8] .
≥ 100 µg/mL

Name the recorded MIC Bp for CN1CCN(CCNC(=O)C(C)(C)O/N=C(/C(=O)N[C@@H]2C(=O)N3C(C(=O)[O-])=C(C[n+]4ccccc4)CS[C@H]23)c2csc(N)n2)CC1 [Compound 12] .
≥ 100 µg/mL

Name the recorded MIC Bp for COCCOCCOCCOCCOCCOCCOCCOCCNC(=O)C(C)(C)O/N=C(/C(=O)N[C@@H]1C(=O)N2C(C(=O)[O-])=C(C[n+]3ccccc3)CS[C@H]12)c1csc(N)n1 [Compound 9] .
≥ 100 µg/mL

Name the recorded MIC Bp for CC(C)(O/N=C(/C(=O)N[C@@H]1C(=O)N2C(C(=O)[O-])=C(C[n+]3ccccc3)CS[C@H]12)c1csc(N)n1)C(=O)NC1C(O)O[C@H](CO)[C@@H](O)[C@@H]1O (stereo partly shown) [Compound 10] .
< 60 µg/mL
